Data provenance is PubChem BioAssay (NCATS).

# experiment_description: Quantitative High-Throughput drug screen in 47 multiple myeloma cell lines against the NCATS MIPE library collection: XG1_PLB cell viability assay (AID 1919866); also: nearly all actives have a fitted effect of over 35% in size
# run_parameters: CellTiter-Glo ATP, 48 h; series mostly up to 45.8 µM
Inconclusive results are not listed. Calls of active or inactive are those of the source. Calls follow the shape of the dose curve; as a rule, active = well fitted cell-killing curve with a large enough effect; inconclusive = small, poorly fitted or top-dose-only effect, or effect the other way; inactive = no such curve, though single readings can be large or run the other way.
Respond with a class label; see active, inactive

[in] Field: outcome | Entry: O=c1c(-c2ccc(O)cc2)coc2cc(O)ccc12
[out] inactive

[in] Field: outcome | Entry: COc1ccc(C2Sc3ccccc3N(CCN(C)C)C(=O)C2OC(C)=O)cc1 (centres undefined)
[out] inactive

[in] Field: outcome | Entry: COC1CCC(N(C(=O)C2CCC(C)CC2)c2cc(C3=CCCCC3)sc2C(=O)O)CC1 (centres undefined)
[out] active

[in] Field: outcome | Entry: CC=CC(=O)N(CC)c1ccccc1C
[out] active

[in] Field: outcome | Entry: Clc1ccc(COC(Cn2ccnc2)c2ccc(Cl)cc2Cl)cc1 (centres undefined)
[out] active

[in] Field: outcome | Entry: CC(C)C(=O)Nc1ncc(-c2cc(C(F)F)nn2-c2c(Cl)cccc2Cl)s1
[out] active

[in] Field: outcome | Entry: O=C1Nc2ccc(Cl)cc2C(C#CC2CC2)(C(F)(F)F)O1 (centres undefined)
[out] active

[in] Field: outcome | Entry: CC[C@@]1(O)C[C@H](O[C@H]2C[C@H](N(C)C)[C@H](O[C@H]3C[C@H](O)[C@H](O[C@H]4CCC(=O)[C@H](C)O4)[C@H](C)O3)[C@H](C)O2)c2c(cc3c(c2O)C(=O)c2c(O)cccc2C3=O)[C@@H]1C(=O)OC
[out] active

[in] Field: outcome | Entry: Cn1cc(C=C2C(=O)Nc3cccnc32)c2ccccc21
[out] inactive

[in] Field: outcome | Entry: CC(C)OC(=O)CCCC=CC[C@@H]1[C@H](C=C[C@@H](O)COc2cccc(C(F)(F)F)c2)[C@H](O)C[C@@H]1O
[out] active

[in] Field: outcome | Entry: C[C@H](NC(=O)C(=O)Nc1ccccc1C(C)(C)C)C(=O)N[C@@H](CC(=O)O)C(=O)COc1c(F)c(F)cc(F)c1F
[out] inactive

[in] Field: outcome | Entry: NC(=O)c1cnc(-c2ccc(C3(N)CCC3)cc2)c(-c2ccccc2)c1
[out] inactive

[in] Field: outcome | Entry: COc1ccc(-c2cc(=O)c3c(O)cc(O)cc3o2)cc1O
[out] active

[in] Field: outcome | Entry: CC(C)C[C@H](CC(=O)O)C(=O)N[C@@H](Cc1c[nH]c2ccccc12)C(=O)N[C@@H](C)c1ccccc1
[out] inactive

[in] Field: outcome | Entry: O=c1ccn([C@@H]2O[C@H](CO)[C@H](O)[C@H]2O)c(=O)[nH]1
[out] inactive

[in] Field: outcome | Entry: CO[C@H]1C=CO[C@@]2(C)Oc3c(C)c(O)c4c(O)c(c5c(c4c3C2=O)NC2(CCN(CC(C)C)CC2)N=5)=NC(=O)C(C)=CC=C[C@H](C)[C@H](O)[C@@H](C)[C@@H](O)[C@@H](C)[C@H](OC(C)=O)[C@H]1C
[out] active

[in] Field: outcome | Entry: CCOc1ccc(Nc2nc(-c3c(C)nc4ccccn34)cs2)cc1
[out] inactive

[in] Field: outcome | Entry: O=c1c(O)c(-c2ccc(O)cc2)oc2cc(O)cc(O)c12
[out] active

[in] Field: outcome | Entry: N#CC1(c2ccc(NC(=O)c3cccnc3NCc3ccncc3)cc2)CCCC1
[out] active

[in] Field: outcome | Entry: CCC(CC)[C@H](NC(C)=O)[C@@H]1[C@H](O)[C@@H](C(=O)O)C[C@@H]1N=C(N)N
[out] inactive

[in] Field: outcome | Entry: O=c1cc(-c2cccc3c2Sc2ccccc2S3)oc(N2CCOCC2)c1
[out] active

[in] Field: outcome | Entry: CC(C)(Cc1ccc2ccccc2c1)NC[C@@H](O)COc1cccc(Cl)c1C#N
[out] inactive

[in] Field: outcome | Entry: CS(=O)(=O)N(Cc1ccco1)CC(O)Cn1c2ccccc2c2ccccc21 (centres undefined)
[out] active

[in] Field: outcome | Entry: Cc1c(O)cccc1C(=O)N[C@@H](CSc1ccccc1)[C@H](O)CN1C[C@H]2CCCC[C@@H]2C[C@@H]1C(=O)NC(C)(C)C
[out] active

[in] Field: outcome | Entry: COc1cccc2c1CCCC2CCCN1CCN(C2CCCCC2)CC1 (centres undefined)
[out] active

[in] Field: outcome | Entry: O=C(O)c1ccc(-c2cc3cccnc3c(-c3ccc4nonc4c3)n2)cc1
[out] active

[in] Field: outcome | Entry: CC1(C)CCC[C@@]2(C)[C@@H]1CC[C@@]1(C)OC(=O)C[C@H]21
[out] inactive

[in] Field: outcome | Entry: CN(C)CCC=C1c2ccccc2COc2ccc(CC(=O)O)cc21
[out] active

[in] Field: outcome | Entry: COc1ccc(-c2coc3cc(O)cc(O)c3c2=O)cc1
[out] inactive

[in] Field: outcome | Entry: COc1cc2ncnc(Nc3ccc(F)c(Cl)c3)c2cc1OCCCN1CCOCC1
[out] active

[in] Field: outcome | Entry: O=C1NC(=O)C(=Cc2cccc(C(F)(F)F)c2)S1
[out] active

[in] Field: outcome | Entry: O=C(Nc1c(Cl)cncc1Cl)c1ccc(OC(F)F)c(OCC2CC2)c1
[out] active

[in] Field: outcome | Entry: COCCOC(=O)C1=C(C)NC2=C(C(=O)CC(c3ccccc3OC)C2)C1c1cccc(O)c1 (centres undefined)
[out] active

[in] Field: outcome | Entry: C[C@]12CC[C@@H]3c4ccc(O)cc4CC[C@H]3[C@H]1C[C@@H](O)[C@H]2O
[out] inactive

[in] Field: outcome | Entry: CN(C)Cc1ccc(-c2nc3cccc4c3n2CCNC4=O)cc1
[out] active

[in] Field: outcome | Entry: Nc1ncnc2c1nc(Cl)n2[C@@H]1O[C@H](CO)[C@@H](O)[C@@H]1O
[out] active

[in] Field: outcome | Entry: CC(C)(C)NC(=O)Nc1cccc(Nc2ncc(F)c(NC(C)(C)CO)n2)c1
[out] active

[in] Field: outcome | Entry: O=C1C(Cl)=C(NCCN2CCOCC2)C(=O)c2ncccc21
[out] active

[in] Field: outcome | Entry: O=c1[nH]cnc2c1ncn2[C@H]1CC[C@@H](CO)O1
[out] inactive

###

# experiment_description: Quantitative High-Throughput drug screen in 47 multiple myeloma cell lines against the NCATS MIPE library collection: KMS26_JCRB cell viability assay (AID 1918975); also: nearly all actives have a fitted effect of over 45% in size
# run_parameters: KMS26 myeloma cells viability, CellTiter-Glo ATP, 48 h; series mostly up to 45.8 µM
Inconclusive results are not listed. Activity calls are given as the source filed them. Calls follow the shape of the dose curve; as a rule, active = well fitted cell-killing curve with a large enough effect; inconclusive = small, poorly fitted or top-dose-only effect, or effect the other way; inactive = no such curve, though single readings can be large or run the other way.
Respond with a class label; see yes = active, no = inactive

[in] Field: outcome | Entry: COc1ccc(-c2cc(=O)c3c(O)cc(O)cc3o2)cc1O
[out] yes

[in] Field: outcome | Entry: CC(C)(C)C(=O)Oc1ccc2c(c1)nc(NC(=O)c1cccc([N+](=O)[O-])c1)n2CCCO
[out] no

[in] Field: outcome | Entry: COC1CCC(N(C(=O)C2CCC(C)CC2)c2cc(C3=CCCCC3)sc2C(=O)O)CC1 (centres undefined)
[out] no

[in] Field: outcome | Entry: O=C(Nc1cc(Cl)cc2c1[nH]c1cnccc12)c1cccnc1
[out] yes

[in] Field: outcome | Entry: CC(C)(C)COc1ccc(-n2cc(C(=O)O)cn2)cc1C#N
[out] no

[in] Field: outcome | Entry: O=C1C(Cl)=C(NCCN2CCOCC2)C(=O)c2ncccc21
[out] yes

[in] Field: outcome | Entry: CC[C@@]1(O)C[C@H](O[C@H]2C[C@H](N(C)C)[C@H](O[C@H]3C[C@H](O)[C@H](O[C@H]4CCC(=O)[C@H](C)O4)[C@H](C)O3)[C@H](C)O2)c2c(cc3c(c2O)C(=O)c2c(O)cccc2C3=O)[C@@H]1C(=O)OC
[out] yes

[in] Field: outcome | Entry: Cc1ccc(F)c(NC(=O)Nc2ccc(-c3cccc4[nH]nc(N)c34)cc2)c1
[out] yes

[in] Field: outcome | Entry: CCCCCN(C)CCC(O)(P(=O)(O)O)P(=O)(O)O
[out] no

###

# experiment_description: Cell Viability - LYMP2-021 (AID 974);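 also: compound exposure lasts 24 hours at 37 °C; nearly all actives have a fitted effect of over 55% in size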; also: potency is read from the fitted curve at half-maximal effect
# run_parameters: LYMP2-021 lymphoblastoid cells viability; series mostly up to 92.2 µM
Results filed as inconclusive are left out. Activity calls are given as the source filed them. Calls follow the shape of the dose curve; as a rule, active = well fitted cell-killing curve with a large enough effect; inconclusive = small, poorly fitted or top-dose-only effect; inactive = flat fitted curve, though single readings scatter.
measured_metric: Potency

CC(=O)O[C@]1(C(C)=O)CC[C@H]2[C@@H]3C=C(Cl)C4=CC(=O)[C@@H]5C[C@@H]5[C@]4(C)[C@H]3CC[C@@]21C
inactive
CC1=C(/C=C/C(C)=C/C=C/C(C)=C/C(=O)Nc2ccc(O)cc2)C(C)(C)CCC1
50.1 µM (active)
O=c1c(O)c(-c2ccc(O)cc2)oc2cc(O)cc(O)c12
inactive
